Target: T1, HLA-B*08:01 (human, biotinylated heavy chain)
T1 construct: Conditional HLA class I complex as for m1
Experiment: UV peptide exchange; HLA class I ELISA
Exch I (%) vs 8%: less than gives 1.0; not less than gives 0.0.

Exam item: Would you kindly verify if Exch I (%) of SLYHREKQL [Peptide 4, 9-mer SLYHREKQL derived from P22 (SEQ ID NO: 1003)] is strictly less than 8%?
Marked response: 0.0

Exam item: Does this binder meet the criterion Exch I (%) < 8%? LYHREKQLI [Peptide 5, 9-mer LYHREKQLI derived from P22 (SEQ ID NO: 1003)]
Marked response: 1.0

Exam item: # TODO verify Exch I (%) < 8% strictly for this binder: KQLIAMDSA [Peptide 9, 9-mer KQLIAMDSA derived from P22 (SEQ ID NO: 1003)]
Marked response: 1.0

Exam item: Hello, I'm reviewing records and need to know if Exch I (%) of HREKQLIAM [Peptide 7, 9-mer HREKQLIAM derived from P22 (SEQ ID NO: 1003)] is below 8%. Could you check?
Marked response: 0.0

Exam item: Field: below-cutoff. Rule: recorded Exch I (%) strictly less than 8%. Subject: YHREKQLIA [Peptide 6, 9-mer YHREKQLIA derived from P22 (SEQ ID NO: 1003)]
Marked response: 0.0

Exam item: Does the reported Exch I (%) of AMDSAITLW [Peptide 1, 9-mer AMDSAITLW derived from FUS1 (SEQ ID NO: 1001)] stay below 8%?
Marked response: 1.0

Exam item: Is Exch I (%) of IAMDSAITL [Peptide 2, 9-mer IAMDSAITL derived from FUS1 (SEQ ID NO: 1001)] strictly below 8%?
Marked response: 1.0

Exam item: Answer whether the binder LIAMDSAIT [Peptide 10, 9-mer LIAMDSAIT derived from P22 (SEQ ID NO: 1003)] has Exch I (%) strictly less than 8%
Marked response: 1.0

Exam item: Problem: For the binder SLIAMDSAI [Peptide 3, 9-mer SLIAMDSAI derived from FUS1 (SEQ ID NO: 1001)] , is Exch I (%) under 8%?
Marked response: 1.0

These data points were gathered from patent US20230029453A1.
